- assay procedure: Plasma stability, human
- Format: in vitro ADME
- experimental parameters: plasma
measure: Plasma stability Human (%)

**Q:** Endpoint output: Plasma stability Human of `COc1ccc(CNC(=O)c2c(Cl)ccnc2OCC2CC2)cc1F` . Value?
**A:** 100

**Q:** Endpoint output: Plasma stability Human of `COc1ccc(CNC(=O)c2c(Cl)cc[n+]([O-])c2OCC2CC2)cc1F` . Value?
**A:** 100

**Q:** Endpoint output: Plasma stability Human of O=C(NCc1ccc2c(c1)OCO2)c1c(Cl)cccc1Cl [Control 1, reference compound] . Value?
**A:** 100

====

- measurement target: human ALDH2 wild type (Homo sapiens, UniProt P05091)
- Construct: His-tag (pTrcHis vector) (N); made in house; host or cells: E. coli BL21
- Sequence (P05091 18-517): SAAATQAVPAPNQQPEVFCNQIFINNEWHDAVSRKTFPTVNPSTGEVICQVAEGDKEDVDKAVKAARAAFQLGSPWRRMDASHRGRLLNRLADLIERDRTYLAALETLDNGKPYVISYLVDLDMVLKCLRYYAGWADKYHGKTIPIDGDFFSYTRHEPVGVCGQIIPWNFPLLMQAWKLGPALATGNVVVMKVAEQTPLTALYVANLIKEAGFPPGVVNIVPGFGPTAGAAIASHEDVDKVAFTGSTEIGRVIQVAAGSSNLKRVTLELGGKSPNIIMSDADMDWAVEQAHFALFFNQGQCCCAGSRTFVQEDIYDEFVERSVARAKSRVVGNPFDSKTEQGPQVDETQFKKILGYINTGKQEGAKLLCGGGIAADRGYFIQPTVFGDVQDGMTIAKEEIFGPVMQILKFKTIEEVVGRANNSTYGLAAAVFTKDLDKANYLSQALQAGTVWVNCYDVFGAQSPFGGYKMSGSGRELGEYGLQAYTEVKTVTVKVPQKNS
- assay procedure: ALDH2 enzymatic assay (NADH at 340 nm), recombinant wild type enzyme
- Format: biochemical
- Set-up: key: −: no activation or inhibition; +: activation less than control 1; ++: activation similar to control 1, within 10%; +++: activation more than control 1 and less than control (compound 161); ++++: activation similar to compound 161, within 10%
- experimental parameters: activation relative to benchmarks control 1 and compound 161
measure: ALDH2 (wild-type)

Past entries and their recorded results:
**Q:** Endpoint output: ALDH2 (wild-type) of `O=C(NCc1ccc(F)c(F)c1)c1c(Cl)ccnc1OCC1CC1` . Value?
**A:** +

**Q:** Endpoint output: ALDH2 (wild-type) of COc1ccc(CNC(=O)c2c(Cl)cccc2OC(C)C2CC2)cc1F (stereo not drawn) . Value?
**A:** +++

**Q:** Endpoint output: ALDH2 (wild-type) of `COc1ccc(CNC(=O)c2c(Cl)ccnc2S(C)(=O)=O)cc1F` . Value?
**A:** +

**Q:** Endpoint output: ALDH2 (wild-type) of `COc1ccc(CNC(=O)c2c(Cl)cccc2Oc2ccccc2)cc1F` . Value?
**A:** +

**Q:** Endpoint output: ALDH2 (wild-type) of `COc1ccc(CNC(=O)c2c(Cl)cccc2OC)cc1F` . Value?
**A:** ++

Further cases:
**Q:** Endpoint output: ALDH2 (wild-type) of `COc1ccc(CNC(=O)c2c(Cl)ccnc2SC)cc1F` . Value?
**A:** ++

**Q:** Endpoint output: ALDH2 (wild-type) of `CC(C)Oc1ccc(CNC(=O)c2c(Cl)ccnc2OCC2CC2)cc1F` . Value?
**A:** −

**Q:** Endpoint output: ALDH2 (wild-type) of `COc1ccc(CNC(=O)c2c(Cl)cccc2OCC2CCCC2)cc1F` . Value?
**A:** ++

**Q:** Endpoint output: ALDH2 (wild-type) of `COc1ccc(CNC(=O)c2c(Cl)ccnc2OC2CCC2)cc1F` . Value?
**A:** ++++

====

- measurement target: human ALDH2 wild type (Homo sapiens)
- Construct: His-tag (pTrcHis vector) (N); made in house; host or cells: E. coli BL21
- assay procedure: ALDH2 enzymatic assay (NADH at 340 nm), recombinant wild type enzyme
- Type: biochemical
- Design: key: −: no activation or inhibition; +: activation less than control 1; ++: activation similar to control 1, within 10%; +++: activation more than control 1 and less than control (compound 161); ++++: activation similar to compound 161, within 10%
- experimental parameters: activation relative to benchmarks control 1 and compound 161
measure: ALDH2 (wild-type)

**Q:** Endpoint output: ALDH2 (wild-type) of COc1ccc(CNC(=O)c2c(Cl)ccnc2OCC2CCNC2)cc1F (stereo not shown) [Compound 205] . Value?
**A:** +

**Q:** Endpoint output: ALDH2 (wild-type) of O=C(NCc1ccc2c(c1)CCO2)c1c(Cl)ccnc1OCC1CC1 [Compound 245] . Value?
**A:** +

**Q:** Endpoint output: ALDH2 (wild-type) of COc1cc(CNC(=O)c2c(Cl)ccnc2OCC2CC2)ccc1F [Compound 172] . Value?
**A:** +

**Q:** Endpoint output: ALDH2 (wild-type) of O=C(NCc1ccc2c(c1)OCO2)c1c(Cl)cccc1NC1CCCNC1 (stereo not shown) [Compound 133] . Value?
**A:** +

**Q:** Endpoint output: ALDH2 (wild-type) of COc1ccc(CNC(=O)c2c(Cl)cccc2OCCN(C)C)cc1F [Compound 165] . Value?
**A:** ++

Further cases:
**Q:** Endpoint output: ALDH2 (wild-type) of COc1ccc(CNC(=O)c2c(Cl)cccc2Oc2cccc(Cl)c2)cc1F [Compound 136] . Value?
**A:** ++

**Q:** Endpoint output: ALDH2 (wild-type) of COc1ccc(CNC(=O)c2c(Cl)cccc2OCC2CCC2)cc1F [Compound 144] . Value?
**A:** +++

**Q:** Endpoint output: ALDH2 (wild-type) of COc1ccc(CNC(=O)c2c(Cl)ccnc2OCC2(C)CC2)cc1F [Compound 178] . Value?
**A:** ++++

**Q:** Endpoint output: ALDH2 (wild-type) of O=C(NCc1ccc2ocnc2c1)c1c(Cl)ccnc1OCC1CC1 [Compound 260] . Value?
**A:** +

**Q:** Endpoint output: ALDH2 (wild-type) of COc1ccc(CNC(=O)c2c(Cl)cc[n+]([O-])c2Cl)cc1F [Compound 168] . Value?
**A:** +

**Q:** Endpoint output: ALDH2 (wild-type) of COc1ccc(CNS(=O)(=O)c2c(Cl)cccc2Cl)cc1F [Compound 154] . Value?
**A:** +

**Q:** Endpoint output: ALDH2 (wild-type) of COc1cc(CNC(=O)c2c(Cl)ccnc2Cl)ccc1F [Compound 171] . Value?
**A:** −

**Q:** Endpoint output: ALDH2 (wild-type) of COc1ccc(CNC(=O)c2c(Cl)cccc2OCC(C)C)cc1F [Compound 149] . Value?
**A:** ++++

**Q:** Endpoint output: ALDH2 (wild-type) of COc1ccc(CNC(=O)c2c(Cl)cccc2NCc2cccc(C)c2)cc1F [Compound 129] . Value?
**A:** −

====

- measurement target: human ALDH2 wild type (Homo sapiens, UniProt P05091)
- Construct: His-tag (pTrcHis vector) (N); made in house; host or cells: E. coli BL21
- assay procedure: ALDH2 enzymatic assay (NADH at 340 nm), recombinant wild type enzyme
- Format: biochemical
- Set-up: key: −: no activation or inhibition; +: activation less than control 1; ++: activation similar to control 1, within 10%; +++: activation more than control 1 and less than control (compound 161); ++++: activation similar to compound 161, within 10%
- experimental parameters: activation relative to benchmarks control 1 and compound 161
measure: ALDH2 (wild-type)

Past entries and their recorded results:
**Q:** Lookup: ALDH2 (wild-type) / human ALDH2 wild type (Homo sapiens, UniProt P05091) / COc1ccc(CNC(=O)c2c(OC)ccnc2OCC2CC2)cc1F [Compound 251]
**A:** +

**Q:** Lookup: ALDH2 (wild-type) / human ALDH2 wild type (Homo sapiens, UniProt P05091) / CCC(C)S(=O)(=O)c1nccc(Cl)c1C(=O)NCc1ccc(OC)c(F)c1 (centres unmarked) [Compound 223]
**A:** +

**Q:** Lookup: ALDH2 (wild-type) / human ALDH2 wild type (Homo sapiens, UniProt P05091) / COc1cccc(CNC(=O)c2c(Cl)cccc2Br)c1 [Compound 107]
**A:** +

**Q:** Lookup: ALDH2 (wild-type) / human ALDH2 wild type (Homo sapiens, UniProt P05091) / CCOc1nccc(Cl)c1C(=O)NCc1ccc(OC)c(F)c1 [Compound 193]
**A:** ++

Further cases:
**Q:** Lookup: ALDH2 (wild-type) / human ALDH2 wild type (Homo sapiens, UniProt P05091) / CCCOc1cccc(Cl)c1C(=O)NCc1ccc(OC)c(F)c1 [Compound 147]
**A:** +++

====

- assay procedure: NHPLM stability T1/2
- Format: in vitro ADME
- experimental parameters: monkey, liver microsomes
measure: half-life (min)

A = COc1ccc(CNC(=O)c2c(Cl)ccnc2OCC2CC2)cc1F
B = COc1ccc(CNC(=O)c2c(Cl)cc[n+]([O-])c2OCC2CC2)cc1F
C = COc1ccc(CNC(=O)c2c(Cl)cccc2OCC2CC2)cc1F
D = O=C(NCc1ccc2c(c1)OCO2)c1c(Cl)cccc1Cl [Control 1, reference compound]
**Q:** Please list the entries, largest half-life first. Put the labels in the order asked and list them.
**A:** B, A, D, C
(B: 51.3 min, A: 2.54 min, D: 1.57 min, C: 0.685 min)

====

- measurement target: human ALDH2*2 recombinant mutant enzyme (E487K) (Homo sapiens, UniProt P05091, E504K)
- Construct: His-tag (pTrcHis vector) (N); made in house; host or cells: E. coli BL21
- Sequence (P05091 18-517 E504K): as the sequence (P05091 18-517) above, with E487K counted along it
- assay procedure: ALDH2 enzymatic assay (NADH at 340 nm), recombinant mutant enzyme
- Assay type: biochemical
- Set-up: key: −: no activation or inhibition; +: activation less than control 1; ++: activation similar to control 1, within 10%; +++: activation more than control 1 and less than control (compound 161); ++++: activation similar to compound 161, within 10%
- experimental parameters: activation relative to benchmarks control 1 and compound 161
measure: ALDH2 (mutant)

**Q:** Endpoint output: ALDH2 (mutant) of `CCSc1nccc(Cl)c1C(=O)NCc1ccc(OC)c(F)c1` . Value?
**A:** ++

**Q:** Endpoint output: ALDH2 (mutant) of `COc1ccc(CNC(=O)c2c(C)ccnc2OC(C)C)cc1F` . Value?
**A:** +

**Q:** Endpoint output: ALDH2 (mutant) of `O=C(NCc1ccc(OC(F)(F)F)c(F)c1)c1c(Cl)ccnc1OCC1CC1` . Value?
**A:** ++

**Q:** Endpoint output: ALDH2 (mutant) of `COc1ccc(CNC(=O)c2c(C)cccc2C)cc1` . Value?
**A:** +

**Q:** Endpoint output: ALDH2 (mutant) of `COc1ccc(CNC(=O)c2cc(Br)ccc2C)cc1F` . Value?
**A:** +

Here is the next item to consider.
**Q:** Endpoint output: ALDH2 (mutant) of COc1ccc(CNC(=O)c2c(C)ccnc2OCC2CCNC2)cc1F (stereo not drawn) . Value?
**A:** +
